The measured values listed here are drawn from PubChem BioAssay (NCI).

Answer each item with its documented growth.
Test system: MDA-MB-435 melanoma
assay.remarks: NCI-60 one-dose screen, 48 h (100 = growth as untreated, 0 = no growth, -100 = all killed)
condition.info: 10 µM
About 83,000 compounds went through this panel and 20% of them were active in at least one assay; those are over-represented in the sample as a whole.
The figure you give is taken to be in %; do not add the unit.

-- ask Report growth for "CC[C@@]12CC(C(=O)OC)=C3Nc4cc5c(cc4[C@@]34CCN(C[C@H]3O[C@H]31)[C@@H]24)[C@@H]1[C@H](O5)[C@@H](O)[C@@]2(CC)CC(C(=O)OC)=C3Nc4cc(OC)ccc4[C@@]34CCN1[C@@H]24"
-- reply 9.48

-- ask Give a short answer stating reported growth for "O=C(/C=C/c1ccc(F)cc1)c1nc2ccccc2n1Cc1ccc(Br)cc1" .
-- reply -74

-- ask Give growth for "O=C(/C=C/c1ccccc1)c1nc2ccccc2n1Cc1ccc(Br)cc1"
-- reply -27.9

-- ask Name the recorded growth of the compound listed here: "COCCOCCOCCOc1ccc(-n2cc(CCCN(CCNc3ccnc4cc(Cl)ccc34)C(=O)CCC(=O)O[C@@H]3O[C@@H]4OC5(C)CC[C@H]6[C@H](C)CC[C@@H]([C@H]3C)[C@@]46OO5)nn2)cc1"
-- reply 24.8

* * *

System: HOP-62 NSCLC
assay.remarks: NCI-60 one-dose screen, 48 h (100 = growth as untreated, 0 = no growth, -100 = all killed)
condition.info: 10 µM
Experimental: Growth inhibition of the HOP-62 human Non-Small Cell Lung tumor cell line is measured as a screen for anti-cancer activity. Cells are grown in 96 well plates and exposed to the test compound for 48 hours. Compounds are tested at a single concentration, which is 10^-5 M for most compounds. The reported endpoint is percent growth (GI% or GIPRCNT), where numbers from 0 - 100% represent growth inhibition, and numbers from -100% - 0 represent cell death. […]
The panel holds about 83,000 compounds, 20% with a hit somewhere; the sample as a whole holds those more often.
quantity.kind: growth (%)
Express the result in % but write the number alone.

-- ask Name the recorded growth of the molecule listed here: "COC(=O)C[C@](O)(CCC(C)C)C(=O)O[C@@H]1C(OC)=C[C@]23CCCN2CCc2cc4c(cc2[C@H]13)OCO4"
-- reply -50.4

-- ask Write down growth measured for item "O=C(NC([Se])=NC1CCCCC1)c1ccc2c(c1)OCO2"
-- reply 23.3

-- ask Look up and state reported growth for "CC[C@]12C=CCN3CC[C@@]4(c5ccc(OC)cc5N(C)[C@H]4[C@@](O)(C(=O)OC)[C@@H]1OC(=O)CCCC[P+](c1ccc(C)cc1)(c1ccc(C)cc1)c1ccc(C)cc1)[C@@H]32"
-- reply -84

-- ask Identify the reported growth for the following entry. "CN(C)CCc1cn(C2CCC2)c2cccc(O)c12"
-- reply 82.1

* * *

Tested on: SR leukemia
assay.remarks: NCI-60 one-dose screen, 48 h
condition.info: 10 µM
About 83,000 compounds went through this panel and 20% of them were active in at least one assay; those are over-represented in the sample as a whole. Calls of active or inactive are those of the source. How the source made its calls: active means growth percent below 10; inactive means the rest.
# valid calls are active, inactive; nothing else

-- ask Check the results log: what was the call for "C=CCN=C([Se])NC(=O)c1ccc2c(c1)OCO2" ?
-- reply inactive

-- ask Hey, what did the test say about "O=C(/C=C/c1ccc(Cl)cc1Cl)c1nc2ccccc2n1Cc1ccc(F)cc1" ?
-- reply active

-- ask Short answer needed: outcome of this test for "O=C(/C=C/c1cccc(Br)c1)c1nc2ccccc2n1Cc1ccc(Br)cc1" ?
-- reply active

-- ask # fetch the recorded call for "C#CC[Se]C(=O)c1ccc2n[se]nc2c1" here
-- reply active

-- ask So what was the verdict on "COc1cc2cc(C(=O)N3C[C@@H](CCl)c4c3cc(OC(=O)N3CCN(C)[C@@H]5CSSC[C@@H]53)c3ccccc43)[nH]c2c(OC)c1OC" in this test?
-- reply inactive

-- ask Called result for "O=C(/C=C/c1ccco1)c1nc2ccccc2n1Cc1ccc(Br)cc1"
-- reply active

-- ask Recorded call for "C[C@H]1[C@H](OC(=O)CCC(=O)Nc2cnccn2)O[C@@H]2OC3(C)CC[C@H]4[C@H](C)CC[C@@H]1[C@@]24OO3" ?
-- reply active

-- ask How was "O=C(/C=C/c1ccc(Cl)cc1)c1nc2ccccc2n1Cc1ccc(Br)cc1" classified in this test?
-- reply active

-- ask Query: recorded result category for "COc1ccc(OC)c(/C=C/C(=O)c2nc3ccccc3n2Cc2ccc(F)cc2)c1" in this test
-- reply active

* * *

Tested on: SN12C renal
assay.remarks: NCI-60 one-dose screen, 48 h (100 = growth as untreated, 0 = no growth, -100 = all killed)
condition.info: 10 µM
About 83,000 compounds went through this panel and 20% of them were active in at least one assay; those are over-represented in the sample as a whole. The source made the active and inactive calls. How the source made its calls: active means growth percent below 10; inactive means the rest.
I'd appreciate it if you could supply growth values for the items below.

-- ask Check SN12C renal data and give growth for "COCCOCCOCCOc1ccc(-n2cc(CCCN(CCNc3ccnc4cc(Cl)ccc34)C(=O)CCC(=O)O[C@@H]3O[C@@H]4OC5(C)CC[C@H]6[C@H](C)CC[C@@H]([C@H]3C)[C@@]46OO5)nn2)cc1" .
-- reply 52.2% (inactive)

-- ask Answer with growth of Cc1c2oc3c(C)ccc(C(=O)N[C@@H]4C(=O)N[C@H](C(C)C)C(=O)N5CCC[C@H]5C(=O)N(C)CC(=O)N(C)[C@@H](C(C)C)C(=O)OC4C)c3nc-2c(C(=O)N[C@@H]2C(=O)N[C@H](C(C)C)C(=O)N3CC(=O)C[C@H]3C(=O)N(C)CC(=O)N(C)[C@@H](C(C)C)C(=O)OC2C)c(N)c1=O (some centres not stated) measured for SN12C renal.
-- reply 6.6% (active)

* * *

System: K-562 leukemia
assay.remarks: NCI-60 one-dose screen, 48 h
condition.info: 10 µM
This is part of a sample that, as a whole, favours compounds with a hit. Of some 83,000 tested, about 20% had one in any assay. Active and inactive are the calls of the source. Rule for the calls: active = growth percent below 10; inactive = the rest.
Reply using exactly one outcome from active, inactive

-- ask Would you mind telling me which call this test gave "C=CC[Se]C(=O)c1cncc(C(=O)[Se]CC=C)c1" ?
-- reply active

-- ask Please state the recorded outcome for this compound: "CC[C@@]12CC(C(=O)OC)=C3Nc4cc5c(cc4[C@@]34CCN(C[C@H]3O[C@H]31)[C@@H]24)[C@@H]1[C@H](O5)[C@@H](O)[C@@]2(CC)CC(C(=O)OC)=C3Nc4cc(OC)ccc4[C@@]34CCN1[C@@H]24"
-- reply active

-- ask Record lookup: outcome of this test for "CC[C@]12C=CCN3CC[C@@]4(c5ccc(OC)cc5N(C)[C@H]4[C@@](O)(C(=O)OC)[C@@H]1OC(=O)CCC[P+](c1ccc(C)cc1)(c1ccc(C)cc1)c1ccc(C)cc1)[C@@H]32" ?
-- reply active

-- ask Tell me the recorded outcome of this test for "CC[C@]12C=CCN3CC[C@@]4(c5ccc(OC)cc5N(C)[C@H]4[C@@](O)(C(=O)OC)[C@@H]1OC(=O)CCCC[P+](C1CCCCC1)(C1CCCCC1)C1CCCCC1)[C@@H]32" .
-- reply active

-- ask Hi, sorry to bother you, what did the test record for "CCOP(=O)(CC(F)(F)C(F)(F)F)OCC" ?
-- reply active

-- ask Which outcome was assigned to "C=CCN=C([Se])NC(=O)c1ccc2c(c1)OCO2" in this test?
-- reply inactive

-- ask Assay outcome for CC12OOC(C)(OO1)C2CCC(=O)NCCCNc1ccnc2cc(Cl)ccc12 (configuration not stated) : what was it?
-- reply active

-- ask Returns: the outcome recorded for "O=C(/C=C/c1ccccc1Cl)c1nc2ccccc2n1Cc1ccc(F)cc1" in this assay.
-- reply active

-- ask Assay result, entry "O=C(/C=C/c1ccc(Cl)cc1Cl)c1nc2ccccc2n1Cc1ccc(Br)cc1" — outcome?
-- reply inactive

-- ask Write down the call the test reported for this compound. Item: "Cc1ccc2[nH]c(=S)n(-c3ccc(F)cc3)c(=O)c2c1"
-- reply inactive

-- ask Just curious, what result did "COc1ccc(OC)c(/C=C/C(=O)c2nc3ccccc3n2Cc2ccc(F)cc2)c1" get here?
-- reply active

-- ask Identify the outcome logged in this assay for the compound shown: "C#CC[Se]C(=O)c1ccc2n[se]nc2c1"
-- reply active

* * *

Test system: COLO 205 colon
assay.remarks: NCI-60 one-dose screen, 48 h (100 = growth as untreated, 0 = no growth, -100 = all killed)
condition.info: 10 µM
This is part of a sample that, as a whole, favours compounds with a hit. Of some 83,000 tested, about 20% had one in any assay.
quantity.kind: growth (%)
Give the value, in units of %, as a plain number.

-- ask Please indicate growth recorded for "C[C@H]1[C@H](OC(=O)CCC(=O)N(CCCc2cn(-c3ccc(C#N)cc3)nn2)CCNc2ccnc3cc(Cl)ccc23)O[C@@H]2OC3(C)CC[C@H]4[C@H](C)CC[C@@H]1[C@@]24OO3"
-- reply 14.5

-- ask Tell me growth reported for Cc1c2oc3c(C)ccc(C(=O)N[C@@H]4C(=O)N[C@H](C(C)C)C(=O)N5CCC[C@H]5C(=O)N(C)CC(=O)N(C)[C@@H](C(C)C)C(=O)OC4C)c3nc-2c(C(=O)N[C@@H]2C(=O)N[C@H](C(C)C)C(=O)N3CC(=O)C[C@H]3C(=O)N(C)CC(=O)N(C)[C@@H](C(C)C)C(=O)OC2C)c(N)c1=O (stereo not given in full)
-- reply -71

-- ask Report growth, nothing else, for this compound: CC12OOC(C)(OO1)C2CCC(=O)NCCNc1ccnc2cc(Cl)ccc12 (stereo not given)
-- reply 73

-- ask Supply reported growth belonging to this compound: "CC(=O)Oc1ccccc1C(=O)[Se]C(=NC(C)C)NC(C)C"
-- reply -69

-- ask # return recorded growth for input "CC[C@]12C=CCN3CC[C@@]4(c5ccc(OC)cc5N(C)[C@H]4[C@@](O)(C(=O)OC)[C@@H]1OC(=O)CCC[P+](c1ccc(F)cc1)(c1ccc(F)cc1)c1ccc(F)cc1)[C@@H]32"
-- reply -19

-- ask Assign growth to the following record: "CC[C@]12C=CCN3CC[C@@]4(c5ccc(OC)cc5N(C)[C@H]4[C@@](O)(C(=O)OC)[C@@H]1OC(=O)CCCC[P+](C1CCCCC1)(C1CCCCC1)C1CCCCC1)[C@@H]32"
-- reply -76.6

-- ask Complete the entry with growth for "CC[C@]12C=CCN3CC[C@@]4(c5ccc(OC)cc5N(C)[C@H]4[C@@](O)(C(=O)OC)[C@@H]1OC(=O)CCCC[P+](c1ccc(C)cc1)(c1ccc(C)cc1)c1ccc(C)cc1)[C@@H]32"
-- reply -64.1

-- ask # return recorded growth for input "CC12CCC3(CCC(=O)NCCCNc4ccnc5cc(Cl)ccc45)[C@@](C)(OO[C@]3(C)O1)O2"
-- reply 36.7

-- ask Look up and report measured growth for this entry: "CC[C@@]12CC(C(=O)OC)=C3Nc4cc5c(cc4[C@@]34CCN(C[C@H]3O[C@H]31)[C@@H]24)[C@@H]1[C@H](O5)[C@@H](O)[C@@]2(CC)CC(C(=O)OC)=C3Nc4cc(OC)ccc4[C@@]34CCN1[C@@H]24"
-- reply -59.1

-- ask Recall and state the measured growth for CCOP(=O)(OCC)C(NC(C)=O)C(=O)SCCN (stereo not given) .
-- reply 128

-- ask Consider the compound "CC1=C(CCC=O)C2=C(C)C3(CC3)[C@@](C)(O)C(=O)C2=C1" . State its measured growth.
-- reply -71.4

-- ask For the compound "CCC[Se]C(=O)c1ccc(C(=O)[Se]CCC)s1" , give its measured growth value.
-- reply -85.7

-- ask Supply measured growth of "COC(=O)c1ccc(-n2cc(CCCN(CCNc3ccnc4cc(Cl)ccc34)C(=O)CCC(=O)O[C@@H]3O[C@@H]4OC5(C)CC[C@H]6[C@H](C)CC[C@@H]([C@H]3C)[C@@]46OO5)nn2)cc1" in your reply.
-- reply 14.8

-- ask Supply reported growth belonging to this compound: "C=CC[Se]C(=O)c1cncc(C(=O)[Se]CC=C)c1"
-- reply -47.3

-- ask Provide measured growth value, entry: "O=C(NC([Se])=NC1CCCCC1)c1ccccc1"
-- reply 49.2

-- ask Tell me its growth given "CC(C)N=C([Se])NC(=O)c1cccs1" as the entry.
-- reply 84.7

-- ask Kindly indicate its recorded growth. Item: "CCOP(=O)(CC(F)(F)C(F)(F)F)OCC"
-- reply -68

-- ask Look up growth of "COc1ccc(/C=C/C(=O)c2nc3ccccc3n2Cc2ccc(Br)cc2)cc1" and report it.
-- reply 91.4

-- ask Using known records, supply growth for "O=C(NCCCCC(c1ccc(F)cc1)c1ccc(F)cc1)Nc1ccc([N+](=O)[O-])c(C(F)(F)F)c1"
-- reply -100

-- ask Return value of growth for input CC12OOC(C)(OO1)C2CCC(=O)NCCCNc1ccnc2cc(Cl)ccc12 (stereo not given) , no commentary.
-- reply -62.6

-- ask Specify measured growth for "O=C(/C=C/c1ccc(F)cc1)c1nc2ccccc2n1Cc1ccc(Br)cc1" .
-- reply -82.4

-- ask Return value of growth for input "COc1cc(OC)c(S(=O)(=O)N(CCCl)CCCl)cc1C(=O)/C=C/c1cc(OC)c(OC)c(OC)c1" , no commentary.
-- reply -89.8

-- ask Assign growth to the following record: "CC(=O)Oc1ccccc1C(=O)NC([Se])=NC1CCCCC1"
-- reply 28.9

-- ask Tell me its growth given "O=C(/C=C/c1ccco1)c1nc2ccccc2n1Cc1ccc(Br)cc1" as the entry.
-- reply 69.7

-- ask Specify reported growth for the compound shown: "O=C(/C=C/c1ccccc1)c1nc2ccccc2n1Cc1ccc(Br)cc1"
-- reply -74.7

-- ask Input "C[C@H]1[C@H](OC(=O)CCC(=O)N(CCCc2cn(-c3ccc([N+](=O)[O-])cc3)nn2)CCNc2ccnc3cc(Cl)ccc23)O[C@@H]2OC3(C)CC[C@H]4[C@H](C)CC[C@@H]1[C@@]24OO3" , output reported growth.
-- reply 20.1

-- ask Output measured growth for this item: "CC[C@]12C=CCN3CC[C@@]4(c5ccc(OC)cc5N(C)[C@H]4[C@@](O)(C(=O)OC)[C@@H]1OC(=O)CCCC[P+](c1ccc(OC)cc1)(c1ccc(OC)cc1)c1ccc(OC)cc1)[C@@H]32"
-- reply -64.9

-- ask Let me know recorded growth for "COCCOCCOCCOc1ccc(-n2cc(CCCN(CCNc3ccnc4cc(Cl)ccc34)C(=O)CCC(=O)O[C@@H]3O[C@@H]4OC5(C)CC[C@H]6[C@H](C)CC[C@@H]([C@H]3C)[C@@]46OO5)nn2)cc1" , thanks.
-- reply 11.8

-- ask # return recorded growth for input "COC(=O)C[C@](O)(CCC(C)C)C(=O)O[C@H]1C(OC)=C[C@@]23CCCN2CCc2cc4c(cc2[C@@H]13)OCO4"
-- reply -55.4

-- ask Tell me growth reported for "C#CC[Se]C(=O)c1ccc(C(=O)[Se]CC#C)s1"
-- reply 86
